Values compiled from patent US5422126A.

# Run Description: physchem
# Condition Summary: water
Experimental Readout: solubility (µg/mL)
Express it in µg/mL; write the number only.

## Input GET /values?readout=solubility&item= CC1(C)C(=O)N(Cl)C(=O)N1Cl
## Output 2100

###

# Run Description: Water solubility of solid halogenated hydantoins and amount of halogen dissolved in a saturated solution
# Condition Summary: water
Experimental Readout: solubility (µg/mL)
Enter your answer as a number in µg/mL; do not include the unit.

## Input Look up solubility: CC1(C)C(=O)N(Br)C(=O)N1Br [Dibromodimethylhydantion, 1,3-dibromo-5,5-dimethylhydantoin]
## Output 1100
